- Tested on: Mycobacterium tuberculosis Erdman (autoluminescent)
- assay.text: GRinf, maximum normalised growth rate inhibition (three-drug combination) (unitless (-1 to 1)); higher = less effect (negative = killing)
- run.conditions: in vitro model: valerate; time point: terminal (~4-5 doublings, model-specific)
Entries annotated with measured GRinf
Lab note: record just the number, no unit beside it.

[
  {
    "compound": "CC[C@@H](CO)NCCN[C@@H](CC)CO [ethambutol] + O=[N+]([O-])c1cn2c(n1)OC[C@@H](OCc1ccc(OC(F)(F)F)cc1)C2 [pretomanid] + CO[C@H]1/C=C/O[C@@]2(C)Oc3c(C)c(O)c4c(O)c(c(/C=N/N5CCN(C)CC5)c(O)c4c3C2=O)NC(=O)/C(C)=C\\C=C\\[C@H](C)[C@H](O)[C@@H](C)[C@@H](O)[C@@H](C)[C@H](OC(C)=O)[C@@H]1C [rifampicin]",
    "test.target": "Mycobacterium tuberculosis Erdman (autoluminescent)",
    "GRinf": 0.0322
  }
]

// switching to the query compound
Given the compound CC(C)/N=c1\cc2n(-c3ccc(Cl)cc3)c3ccccc3nc-2cc1Nc1ccc(Cl)cc1 [clofazimine] + CC(=O)NC[C@H]1CN(c2ccc(N3CCOCC3)c(F)c2)C(=O)O1 [linezolid] + CO[C@H]1/C=C/O[C@@]2(C)Oc3c(C)c(O)c4c(O)c(c(/C=N/N5CCN(C6CCCC6)CC5)c(O)c4c3C2=O)NC(=O)/C(C)=C\C=C\[C@H](C)[C@H](O)[C@@H](C)[C@@H](O)[C@@H](C)[C@H](OC(C)=O)[C@@H]1C [rifapentine] , what is its reported GRinf?
-0.00893

----------
FIC50 reference
- Tested on: Mycobacterium tuberculosis Erdman (autoluminescent)
- assay.text: FIC50 (Loewe) at 50% inhibition (log2); higher = more antagonistic
- run.conditions: in vitro model: standard 7H9 glycerol; time point: constant = terminal
// return a plain number; no unit text

Use these answered entries as a reference point.
[
  {
    "compound": "COc1nc2ccc(Br)cc2cc1[C@@H](c1ccccc1)[C@@](O)(CCN(C)C)c1cccc2ccccc12 [bedaquiline] + CC[C@@H](CO)NCCN[C@@H](CC)CO [ethambutol]",
    "reported": 0.176
  },
  {
    "compound": "COc1nc2ccc(Br)cc2cc1[C@@H](c1ccccc1)[C@@](O)(CCN(C)C)c1cccc2ccccc12 [bedaquiline] + CO[C@H]1/C=C/O[C@@]2(C)Oc3c(C)c(O)c4c(O)c(c(/C=N/N5CCN(C)CC5)c(O)c4c3C2=O)NC(=O)/C(C)=C\\C=C\\[C@H](C)[C@H](O)[C@@H](C)[C@@H](O)[C@@H](C)[C@H](OC(C)=O)[C@@H]1C [rifampicin]",
    "reported": 0.22
  }
]

// next item, FIC50 requested
I would be grateful if you could share the reported FIC50 for COc1nc2ccc(Br)cc2cc1[C@@H](c1ccccc1)[C@@](O)(CCN(C)C)c1cccc2ccccc12 [bedaquiline] + CO[C@H]1/C=C/O[C@@]2(C)Oc3c(C)c(O)c4c(O)c(c(/C=N/N5CCN(C6CCCC6)CC5)c(O)c4c3C2=O)NC(=O)/C(C)=C\C=C\[C@H](C)[C@H](O)[C@@H](C)[C@@H](O)[C@@H](C)[C@H](OC(C)=O)[C@@H]1C [rifapentine] .
0.236

----------
- Test system: Mycobacterium tuberculosis Erdman (autoluminescent)
- assay.text: total FIC50 (Loewe) at 50% inhibition, three-drug combination (log2); higher = more antagonistic
- run.conditions: in vitro model: cholesterol-high 0.2 mM; time point: terminal (~4-5 doublings, model-specific)
recorded.endpoint: total FIC50

# annotated cases, reported total FIC50 shown
[
  {
    "compound": "CC[C@@H](CO)NCCN[C@@H](CC)CO [ethambutol] + CC(=O)NC[C@H]1CN(c2ccc(N3CCOCC3)c(F)c2)C(=O)O1 [linezolid] + NC(=O)c1cnccn1 [pyrazinamide]",
    "total FIC50": 0.303
  },
  {
    "compound": "CC[C@@H](CO)NCCN[C@@H](CC)CO [ethambutol] + NC(=O)c1cnccn1 [pyrazinamide] + CO[C@H]1/C=C/O[C@@]2(C)Oc3c(C)c(O)c4c(O)c(c(/C=N/N5CCN(C)CC5)c(O)c4c3C2=O)NC(=O)/C(C)=C\\C=C\\[C@H](C)[C@H](O)[C@@H](C)[C@@H](O)[C@@H](C)[C@H](OC(C)=O)[C@@H]1C [rifampicin]",
    "total FIC50": 1.15
  },
  {
    "compound": "CC[C@@H](CO)NCCN[C@@H](CC)CO [ethambutol] + NNC(=O)c1ccncc1 [isoniazid] + COc1c(N2C[C@@H]3CCCN[C@@H]3C2)c(F)cc2c(=O)c(C(=O)O)cn(C3CC3)c12 [moxifloxacin]",
    "total FIC50": 1.21
  },
  {
    "compound": "COc1nc2ccc(Br)cc2cc1[C@@H](c1ccccc1)[C@@](O)(CCN(C)C)c1cccc2ccccc12 [bedaquiline] + CC(C)/N=c1\\cc2n(-c3ccc(Cl)cc3)c3ccccc3nc-2cc1Nc1ccc(Cl)cc1 [clofazimine] + NNC(=O)c1ccncc1 [isoniazid]",
    "total FIC50": 0.648
  },
  {
    "compound": "NNC(=O)c1ccncc1 [isoniazid] + COc1c(N2C[C@@H]3CCCN[C@@H]3C2)c(F)cc2c(=O)c(C(=O)O)cn(C3CC3)c12 [moxifloxacin] + O=[N+]([O-])c1cn2c(n1)OC[C@@H](OCc1ccc(OC(F)(F)F)cc1)C2 [pretomanid]",
    "total FIC50": 0.407
  },
  {
    "compound": "COc1nc2ccc(Br)cc2cc1[C@@H](c1ccccc1)[C@@](O)(CCN(C)C)c1cccc2ccccc12 [bedaquiline] + CC(C)/N=c1\\cc2n(-c3ccc(Cl)cc3)c3ccccc3nc-2cc1Nc1ccc(Cl)cc1 [clofazimine] + COc1c(N2C[C@@H]3CCCN[C@@H]3C2)c(F)cc2c(=O)c(C(=O)O)cn(C3CC3)c12 [moxifloxacin]",
    "total FIC50": 0.0978
  },
  {
    "compound": "COc1nc2ccc(Br)cc2cc1[C@@H](c1ccccc1)[C@@](O)(CCN(C)C)c1cccc2ccccc12 [bedaquiline] + COc1c(N2C[C@@H]3CCCN[C@@H]3C2)c(F)cc2c(=O)c(C(=O)O)cn(C3CC3)c12 [moxifloxacin] + NC(=O)c1cnccn1 [pyrazinamide]",
    "total FIC50": 0.406
  },
  {
    "compound": "COc1nc2ccc(Br)cc2cc1[C@@H](c1ccccc1)[C@@](O)(CCN(C)C)c1cccc2ccccc12 [bedaquiline] + CC[C@@H](CO)NCCN[C@@H](CC)CO [ethambutol] + NC(=O)c1cnccn1 [pyrazinamide]",
    "total FIC50": 1
  }
]

Sample CC[C@@H](CO)NCCN[C@@H](CC)CO [ethambutol] + O=[N+]([O-])c1cn2c(n1)OC[C@@H](OCc1ccc(OC(F)(F)F)cc1)C2 [pretomanid] + NC(=O)c1cnccn1 [pyrazinamide] — what was its total FIC50?
0.65

Fill in the blank: the reported total FIC50 of CC(C)/N=c1\cc2n(-c3ccc(Cl)cc3)c3ccccc3nc-2cc1Nc1ccc(Cl)cc1 [clofazimine] + CC[C@@H](CO)NCCN[C@@H](CC)CO [ethambutol] + O=[N+]([O-])c1cn2c(n1)OC[C@@H](OCc1ccc(OC(F)(F)F)cc1)C2 [pretomanid] is ____.
0.97

Which total FIC50 reading was recorded for the compound CC(C)/N=c1\cc2n(-c3ccc(Cl)cc3)c3ccccc3nc-2cc1Nc1ccc(Cl)cc1 [clofazimine] + CC[C@@H](CO)NCCN[C@@H](CC)CO [ethambutol] + NNC(=O)c1ccncc1 [isoniazid] ?
0.577

So what's the measured total FIC50 for this one? CC(C)/N=c1\cc2n(-c3ccc(Cl)cc3)c3ccccc3nc-2cc1Nc1ccc(Cl)cc1 [clofazimine] + NC(=O)c1cnccn1 [pyrazinamide] + CO[C@H]1/C=C/O[C@@]2(C)Oc3c(C)c(O)c4c(O)c(c(/C=N/N5CCN(C)CC5)c(O)c4c3C2=O)NC(=O)/C(C)=C\C=C\[C@H](C)[C@H](O)[C@@H](C)[C@@H](O)[C@@H](C)[C@H](OC(C)=O)[C@@H]1C [rifampicin]
1.43

GET /values?readout=total FIC50&item= CC(C)/N=c1\cc2n(-c3ccc(Cl)cc3)c3ccccc3nc-2cc1Nc1ccc(Cl)cc1 [clofazimine] + CC(=O)NC[C@H]1CN(c2ccc(N3CCOCC3)c(F)c2)C(=O)O1 [linezolid] + COc1c(N2C[C@@H]3CCCN[C@@H]3C2)c(F)cc2c(=O)c(C(=O)O)cn(C3CC3)c12 [moxifloxacin]
-0.0894

Item COc1nc2ccc(Br)cc2cc1[C@@H](c1ccccc1)[C@@](O)(CCN(C)C)c1cccc2ccccc12 [bedaquiline] + CC(=O)NC[C@H]1CN(c2ccc(N3CCOCC3)c(F)c2)C(=O)O1 [linezolid] + CO[C@H]1/C=C/O[C@@]2(C)Oc3c(C)c(O)c4c(O)c(c(/C=N/N5CCN(C6CCCC6)CC5)c(O)c4c3C2=O)NC(=O)/C(C)=C\C=C\[C@H](C)[C@H](O)[C@@H](C)[C@@H](O)[C@@H](C)[C@H](OC(C)=O)[C@@H]1C [rifapentine] has what recorded total FIC50?
0.404
